The origin of these recorded values is ChEMBL document CHEMBL1201862.

Each entry below carries its reported GI50.
# Tested on: UACC-62
# assay-method-text: NCI tumour cell line growth inhibition, 48 h
The source made the active and inactive calls. Cut-off read from the data, not from the text of the source: active = GI50 up to about 1.1 µM and inactive = higher.

compound	GI50
CCn1c2ccc(C(=O)CCCN(C)C)cc2c2cc(C(=O)CCCN(C)C)ccc21	7.59 µM (inactive)
Clc1cccc(N2CCN(CCCN3CCc4c([nH]c5ccccc45)C3c3cccnc3)CC2)c1 (stereo not given)	> 10 µM (inactive)
Cc1ccc2c(c1)C(=S)N1CSCC1c1nncn1-2 (stereo not given)	> 100 µM (inactive)
CC1=C(C(=O)Nc2ccccc2)C(c2ccc(C3C(C(=O)Nc4ccccc4)=C(C)NC(C)=C3C(=O)Nc3ccccc3)cc2)C(C(=O)Nc2ccccc2)=C(C)N1	1.67 µM (inactive)
CC(=O)OC(Cc1ccc2ccccc2n1)(C(F)(F)F)C(F)(F)F	1.32 µM (inactive)

Query: GET /values?readout=GI50&system=UACC-62&item= CCCCCC(/C=N/NC(N)=S)C(O)(C(F)(F)F)C(F)(F)F (stereo not given)
Reply: > 10 µM (inactive)

Query: Give recorded GI50 with UACC-62 for the following compound: `[O-][n+]1ccc(NO)c2ccccc21`
Reply: 1.22 µM (inactive)

Query: Request: GI50, test system UACC-62, entry `NC12CC3C4CC5(N)CC3C(C1)C(C5)C4C2`
Reply: > 100 µM (inactive)

Query: Please state recorded GI50 (tested on UACC-62) of COP(=O)(/C=C/C(NC(=O)C(Cl)(Cl)Cl)c1ccccc1)OC (stereo not given)
Reply: > 100 µM (inactive)

Query: So what GI50 did `C[C@]12CC/C(=N\O)C=C1CC[C@@H]1[C@@H]2CC[C@]2(C)C(=N/O)/C(=C/c3ccncc3)C[C@@H]12` get with UACC-62?
Reply: 16.4 µM (inactive)
